Below, each entry is listed alongside its reported Ki.
# assayed-target: B*0702 (Homo sapiens, UniProt P01889)
# Construct: endogenous in cells
# experiment-description: Competition binding assay using soluble HLA class I
# condition-set: Ki (nM), HLA-B0702 section
Where a SMILES comes first, the peptide text is derived from it.
All answers are understood in nM, so give the number only.

Field: example entries. Status: answers known.
1. CC(C)C[C@H](NC(=O)CNC(=O)[C@H](CC(C)C)NC(=O)[C@H](C)NC(=O)[C@H](CO)NC(=O)[C@H](CC(C)C)NC(=O)[C@H](CCCCN)NC(=O)[C@H](C)NC(=O)[C@H](C)N)C(=O)O (H-AAKLSALGL-OH; N-terminus and C-terminus assumed) | 277
2. C[C@H](N)C(=O)N1CCC[C@H]1C(=O)N[C@H](C(=O)NCC(=O)N[C@@H](CO)C(=O)NCC(=O)N[C@@H](CCCCN)C(=O)N[C@@H](CO)C(=O)N[C@H](C(=O)O)[C@@H](C)O)[C@@H](C)O (H-APTGSGKST-OH; N-terminus and C-terminus assumed) | 370
3. CC(C)C[C@H](NC(=O)[C@H](C)NC(=O)[C@H](CCCNC(=N)N)NC(=O)[C@H](C)NC(=O)[C@H](C)N)C(=O)N[C@@H](C)C(=O)N[C@@H](Cc1c[nH]cn1)C(=O)NCC(=O)N[C@H](C(=O)O)C(C)C (H-AARALAHGV-OH; N-terminus and C-terminus assumed) | 209

Case CC(C)C[C@H](NC(=O)[C@@H](NC(=O)[C@H](CCCNC(=N)N)NC(=O)[C@@H](NC(=O)CNC(=O)[C@H](Cc1c[nH]cn1)NC(=O)[C@H](C)NC(=O)[C@H](CC(C)C)NC(=O)[C@H](C)N)C(C)C)C(C)C)C(=O)O , B*0702 (Homo sapiens, UniProt P01889), Ki recorded as 7950

====

# assayed-target: HLA-A02 (Homo sapiens, UniProt P04439, D140Y/D185E/D98H/E176V/E277Q/G131W/G231S/I119V/I121R/I166T/I218V/L300P/L318F/N151K/N90K/P208A/P217A/Q86G/Q94H/R138H/R169H/T345S)
# experiment-description: Competition binding assay using soluble HLA class I
Where a SMILES comes first, the peptide text is derived from it.
measurement-name: log10 of Ki (log10 of the value in µM)
Log10 applied to Ki; unit prior to transform: µM.

1. CC[C@H](C)[C@H](NC(=O)[C@H](Cc1ccc(O)cc1)NC(=O)[C@H](CC(C)C)NC(=O)[C@@H](N)CCCNC(=N)N)C(=O)NCC(=O)NCC(=O)N1CCC[C@H]1C(=O)N[C@@H](CC(C)C)C(=O)N[C@H](C(=O)O)[C@@H](C)O (H-RLYIGGPLT-OH) | -0.27
2. CC[C@H](C)[C@H](NC(=O)[C@H](CC(N)=O)NC(=O)CNC(=O)[C@H](CC(C)C)NC(=O)[C@@H](N)Cc1c[nH]c2ccccc12)C(=O)N[C@H](C(=O)N[C@@H](CCSC)C(=O)N[C@@H](Cc1ccc(O)cc1)C(=O)N[C@@H](C)C(=O)O)[C@@H](C)CC | -1.84
3. CC[C@H](C)[C@H](NC(=O)[C@@H](NC(=O)[C@@H](N)CC(N)=O)[C@@H](C)CC)C(=O)N[C@@H](CCSC)C(=O)N[C@@H](Cc1ccc(O)cc1)C(=O)N[C@@H](C)C(=O)N1CCC[C@H]1C(=O)N[C@H](C(=O)N[C@@H](CC(C)C)C(=O)O)[C@@H](C)O | -1.15

The recorded log10 of Ki for CC[C@H](C)[C@H](NC(=O)[C@@H](NC(=O)[C@H](CC(C)C)NC(=O)[C@H](CS)NC(=O)[C@H](CO)NC(=O)[C@H](CC(C)C)NC(=O)[C@@H](N)CC(C)C)[C@@H](C)O)C(=O)N1CCC[C@H]1C(=O)N[C@@H](C)C(=O)O is -1.92

get_value(item= CC(C)C[C@H](NC(=O)[C@@H](NC(=O)[C@H](CC(C)C)NC(=O)[C@@H](NC(=O)[C@@H](N)CCCCN)C(C)C)C(C)C)C(=O)N[C@@H](CC(N)=O)C(=O)N1CCC[C@H]1C(=O)N[C@@H](CO)C(=O)N[C@H](C(=O)O)C(C)C (H-KVLVLNPSV-OH) , readout=log10 of Ki) returns -1.30

response.value for CC[C@H](C)[C@H](N)C(=O)N[C@@H](CCSC)C(=O)N[C@@H](Cc1ccc(O)cc1)C(=O)N[C@@H](C)C(=O)N1CCC[C@H]1C(=O)N[C@H](C(=O)N[C@@H](CC(C)C)C(=O)N[C@@H](Cc1c[nH]c2ccccc12)C(=O)N[C@@H](C)C(=O)O)[C@@H](C)O (field: log10 of Ki) = -1.34

Please fill in: log10 of Ki reported for CC(C)C[C@H](NC(=O)[C@@H](N)Cc1ccc(O)cc1)C(=O)N[C@@H](Cc1ccccc1)C(=O)N[C@@H](CC(N)=O)C(=O)N[C@@H](Cc1c[nH]c2ccccc12)C(=O)N[C@@H](C)C(=O)N[C@H](C(=O)N[C@@H](CCCNC(=N)N)C(=O)N[C@H](C(=O)O)[C@@H](C)O)C(C)C (H-YLFNWAVRT-OH; N-terminus and C-terminus assumed) = -1.54

Form: compound = CC(C)C[C@H](NC(=O)[C@H](CS)NC(=O)[C@H](CO)NC(=O)[C@H](CC(C)C)NC(=O)[C@H](CC(C)C)NC(=O)[C@H](C)NC(=O)[C@H](CC(C)C)NC(=O)[C@H](CC(C)C)NC(=O)[C@@H](N)Cc1ccccc1)C(=O)O ; log10 of Ki = -0.87

Measured log10 of Ki, CSCC[C@H](NC(=O)[C@@H](N)CO)C(=O)N[C@H](C(=O)NCC(=O)N[C@@H](CC(N)=O)C(=O)N[C@@H](Cc1c[nH]c2ccccc12)C(=O)N[C@@H](C)C(=O)N[C@@H](CCCCN)C(=O)N[C@H](C(=O)O)C(C)C)C(C)C (H-SMVGNWAKV-OH; N-terminus and C-terminus assumed) : -0.80

The value of log10 of Ki measured for the compound CC(C)C[C@H](NC(=O)[C@H](C)NC(=O)[C@H](CC(C)C)NC(=O)[C@H](CC(C)C)NC(=O)[C@@H](N)Cc1ccccc1)C(=O)N[C@@H](CC(C)C)C(=O)N[C@@H](CO)C(=O)N[C@@H](CS)C(=O)N[C@@H](CC(C)C)C(=O)N[C@H](C(=O)O)[C@@H](C)O turned out to be -0.88

Short answer for CC(C)[C@H](NC(=O)[C@@H](NC(=O)[C@H](C)NC(=O)[C@H](CCC(N)=O)NC(=O)[C@@H](N)Cc1ccc(O)cc1)[C@@H](C)O)C(=O)N[C@@H](CS)C(=O)N[C@@H](C)C(=O)N[C@@H](CCCNC(=N)N)C(=O)N[C@@H](C)C(=O)O (H-YQATVCARA-OH) : log10 of Ki was -1.70

Reported log10 of Ki ( CC(C)C[C@H](NC(=O)[C@@H](NC(=O)[C@H](CCCNC(=N)N)NC(=O)[C@@H](NC(=O)CNC(=O)[C@H](Cc1c[nH]cn1)NC(=O)[C@H](C)NC(=O)[C@H](CC(C)C)NC(=O)[C@H](C)N)C(C)C)C(C)C)C(=O)O ) = -0.20

Sure, the documented log10 of Ki for CC[C@H](C)[C@H](NC(=O)[C@H](CO)NC(=O)[C@H](Cc1ccccc1)NC(=O)[C@H](CO)NC(=O)[C@H](CS)NC(=O)CNC(=O)[C@@H]1CCCN1C(=O)[C@H](CC(C)C)NC(=O)[C@@H](N)CC(N)=O)C(=O)O (H-NLPGCSFSI-OH) is -1.15

// log10 of Ki value for CC(C)C[C@H](NC(=O)[C@H](CCCNC(=N)N)NC(=O)[C@H](Cc1ccc(O)cc1)NC(=O)[C@@H]1CCCN1C(=O)[C@H](Cc1ccc(O)cc1)NC(=O)[C@H](CC(=O)O)NC(=O)[C@@H](NC(=O)[C@H](CC(C)C)NC(=O)[C@@H](N)CS)C(C)C)C(=O)O (H-CLVDYPYRL-OH; N-terminus and C-terminus assumed) : -0.36

====

# assayed-target: DRB1*0101 (Homo sapiens, UniProt P01903+P01911, A100R/D57E/F55L/F60I/F76Y/I96L/L162R/M171V/P40L/Q125E/R42F/V115G/Y59C)
# Construct: endogenous in cells
# experiment-description: Competition binding assay using soluble HLA class II
Where a SMILES comes first, the peptide text is derived from it.
measurement-name: log10 of IC50 (log10 of the value in µM)
# values: log10(IC50), units µM

Guide cases for log10 of IC50, answers given:
1. CSCC[C@H](NC(=O)[C@H](CC(C)C)NC(=O)[C@H](C)NC(=O)[C@H](CC(=O)O)NC(=O)[C@@H](NC(=O)[C@H](C)NC(=O)[C@@H](NC(=O)[C@@H](NC(=O)[C@@H](NC(=O)[C@@H](NC(=O)[C@@H](N)CC(=O)O)C(C)C)C(C)C)C(C)C)C(C)C)[C@@H](C)O)C(=O)N[C@H](C(=O)NCC(=O)N[C@@H](Cc1ccc(O)cc1)C(=O)N[C@H](C(=O)O)[C@@H](C)O)[C@@H](C)O | -0.34
2. CC[C@H](C)[C@H](NC(=O)[C@H](CC(N)=O)NC(=O)CNC(=O)[C@H](CC(C)C)NC(=O)[C@H](Cc1c[nH]c2ccccc12)NC(=O)[C@H](CO)NC(=O)[C@@H](N)CC(N)=O)C(=O)N[C@H](C(=O)N[C@@H](CCSC)C(=O)N[C@@H](Cc1ccc(O)cc1)C(=O)N[C@@H](C)C(=O)N1CCC[C@H]1C(=O)N[C@H](C(=O)N[C@@H](CC(C)C)C(=O)N[C@@H](Cc1c[nH]c2ccccc12)C(=O)O)[C@@H](C)O)[C@@H](C)CC | -2.92

Reported log10 of IC50 of CC(C)[C@H](NC(=O)[C@H](CCCNC(=N)N)NC(=O)[C@H](CCC(N)=O)NC(=O)CNC(=O)[C@@H]1CCCN1C(=O)[C@H](CO)NC(=O)[C@H](Cc1ccc(O)cc1)NC(=O)[C@H](CCC(N)=O)NC(=O)[C@H](Cc1ccccc1)NC(=O)CNC(=O)[C@H](Cc1ccc(O)cc1)NC(=O)[C@H](CO)NC(=O)[C@H](CO)NC(=O)CN)C(=O)N[C@@H](CCC(=O)O)C(=O)O : -1.96

Per the record, CC(C)C[C@H](NC(=O)[C@H](CCCNC(=N)N)NC(=O)[C@H](C)NC(=O)CN)C(=O)N[C@H](C(=O)N[C@H](C(=O)N[C@@H](CC(C)C)C(=O)N[C@@H](C)C(=O)N[C@H](C(=O)N[C@@H](C)C(=O)N[C@H](C(=O)N1CCC[C@H]1C(=O)N1CCC[C@H]1C(=O)NCC(=O)N[C@@H](CO)C(=O)O)[C@@H](C)O)[C@@H](C)O)C(C)C)C(C)C (H-GARLVVLATATPPGS-OH; N-terminus and C-terminus assumed) has log10 of IC50 of -0.76

// sample CC(C)[C@H](NC(=O)CNC(=O)[C@H](CCCNC(=N)N)NC(=O)[C@@H](NC(=O)[C@H](CS)NC(=O)[C@@H](NC(=O)[C@H](C)NC(=O)[C@H](C)NC(=O)[C@@H](N)CCCNC(=N)N)C(C)C)[C@@H](C)O)C(=O)N[C@@H](C)C(=O)N[C@@H](CCCCN)C(=O)N[C@@H](C)C(=O)N[C@H](C(=O)N[C@@H](CC(=O)O)C(=O)N[C@@H](Cc1ccccc1)C(=O)O)C(C)C , its log10 of IC50 was -0.21
